Test: PHH cytotoxicity assay
Assay type: cell-based
Conditions: human, fresh primary hepatocytes (PHH), daily replacement
parameter-measured: CC50 at 5 days (µM)
One number for each entry, in µM.

Problem: Reported CC50 at 5 days for "C[C@H](N[P@](=O)(OC[C@@]1(C#N)O[C@@H](c2ccc3c(N)ncnn23)[C@H](O)[C@@H]1O)Oc1ccccc1)C(=O)OC1CCCCC1" : what is it?
Solution: 21.2

--- query ---
Problem: Reported CC50 at 5 days for "CCC(CC)COC(=O)[C@H](C)N[P@](=O)(OC[C@@]1(C#N)O[C@@H](c2ccc3c(N)ncnn23)[C@H](O)[C@@H]1O)Oc1ccccc1" : what is it?
Solution: 14.1

----------
I'd appreciate it if you could supply half-life at 2 μM values for the items below.
Test: Stability assay in human hepatic S9 fractions
Format: in vitro ADME
Settings: 37° C., NADPH and UDPGA, read-out: Hum HepS9 t1/2
Answers are plain numbers, in min.

Problem: Reported half-life at 2 μM for C[C@H](N[P@](=O)(OC[C@@]1(C#N)O[C@@H](c2ccc3c(N)ncnn23)[C@H](O)[C@@H]1O)Oc1ccccc1)C(=O)OC1CCCCC1 [Formula I] : what is it?
Solution: 31

For each of the molecules below, state half-life at 2 μM.
1. CCC(CC)COC(=O)[C@H](C)NP(=O)(OC[C@@]1(C#N)O[C@@H](c2ccc3c(N)ncnn23)[C@H](O)[C@@H]1O)Oc1ccccc1 (stereo partly drawn) [Compound 2, reference compound]
2. CCOC(=O)[C@H](C)N[P@](=O)(OC[C@@]1(C#N)O[C@@H](c2ccc3c(N)ncnn23)[C@H](O)[C@@H]1O)Oc1ccccc1 [Compound 8]
3. CCOC(=O)[C@H](C)NP(=O)(OC[C@@]1(C#N)O[C@@H](c2ccc3c(N)ncnn23)[C@H](O)[C@@H]1O)Oc1ccccc1 (stereo partly drawn) [Compound 1, reference compound]
4. CCC(CC)COC(=O)[C@H](C)N[P@@](=O)(OC[C@@]1(C#N)O[C@@H](c2ccc3c(N)ncnn23)[C@H](O)[C@@H]1O)Oc1ccccc1 (single isomer, unassigned) [Compound 7]
5. CCC(CC)COC(=O)[C@H](C)N[P@](=O)(OC[C@@]1(C#N)O[C@@H](c2ccc3c(N)ncnn23)[C@H](O)[C@@H]1O)Oc1ccccc1 [Compound 6]

Solution:
[12, 2, 12, 6, 7]

----------
Assay: Huh-7 cytotoxicity assay
Assay type: cell-based
Details: human, Huh7 cells
I'd appreciate it if you could supply CC50 at 5 days values for the items below.

Solved entries (count: 3):
Problem: Reported CC50 at 5 days for CCOC(=O)[C@H](C)NP(=O)(OC[C@@]1(C#N)O[C@@H](c2ccc3c(N)ncnn23)[C@H](O)[C@@H]1O)Oc1ccccc1 (stereo partly shown) [Compound 1, reference compound] : what is it?
Solution: > 44.4 µM

Problem: Reported CC50 at 5 days for "CCC(CC)COC(=O)[C@H](C)N[P@](=O)(OC[C@@]1(C#N)O[C@@H](c2ccc3c(N)ncnn23)[C@H](O)[C@@H]1O)Oc1ccccc1" : what is it?
Solution: 17.2 µM

Problem: Reported CC50 at 5 days for CCC(CC)COC(=O)[C@H](C)NP(=O)(OC[C@@]1(C#N)O[C@@H](c2ccc3c(N)ncnn23)[C@H](O)[C@@H]1O)Oc1ccccc1 (stereo partly shown) [Compound 2, reference compound] : what is it?
Solution: > 44.4 µM

Further cases:
Problem: Reported CC50 at 5 days for "C[C@H](N[P@](=O)(OC[C@@]1(C#N)O[C@@H](c2ccc3c(N)ncnn23)[C@H](O)[C@@H]1O)Oc1ccccc1)C(=O)OC1CCCCC1" : what is it?
Solution: > 88.9 µM

----------
Assay: in vitro
Format: cell-based
Settings: human, read-out: CC50 GALHEPG2
parameter-measured: CC50 at 5 days

Solved entries (count: 3):
Problem: Reported CC50 at 5 days for "C[C@H](N[P@](=O)(OC[C@@]1(C#N)O[C@@H](c2ccc3c(N)ncnn23)[C@H](O)[C@@H]1O)Oc1ccccc1)C(=O)OC1CCCCC1" : what is it?
Solution: > 88.9 µM

Problem: Reported CC50 at 5 days for "CCC(CC)COC(=O)[C@H](C)N[P@](=O)(OC[C@@]1(C#N)O[C@@H](c2ccc3c(N)ncnn23)[C@H](O)[C@@H]1O)Oc1ccccc1" : what is it?
Solution: > 88.9 µM

Problem: Reported CC50 at 5 days for CCC(CC)COC(=O)[C@H](C)NP(=O)(OC[C@@]1(C#N)O[C@@H](c2ccc3c(N)ncnn23)[C@H](O)[C@@H]1O)Oc1ccccc1 (stereo partly shown) [Compound 2, reference compound] : what is it?
Solution: > 44.4 µM

--- query ---
Problem: Reported CC50 at 5 days for CCOC(=O)[C@H](C)NP(=O)(OC[C@@]1(C#N)O[C@@H](c2ccc3c(N)ncnn23)[C@H](O)[C@@H]1O)Oc1ccccc1 (stereo partly shown) [Compound 1, reference compound] : what is it?
Solution: > 44.4 µM

----------
Experiment: in vitro
Assay type: in vitro ADME
Conditions: human, plasma, 37° C., up to 4 h, read-out: Hum Plasma t1/2
Output label 1 for half-life at 2 μM not less than 4 h; output label 0 otherwise.

// known answers, use as guide
Problem: Is half-life at 2 μM for "C[C@H](N[P@](=O)(OC[C@@]1(C#N)O[C@@H](c2ccc3c(N)ncnn23)[C@H](O)[C@@H]1O)Oc1ccccc1)C(=O)OC1CCCCC1" at or above 4 h?
Solution: label 1

Problem: Is half-life at 2 μM for CCC(CC)COC(=O)[C@H](C)NP(=O)(OC[C@@]1(C#N)O[C@@H](c2ccc3c(N)ncnn23)[C@H](O)[C@@H]1O)Oc1ccccc1 (stereo partly drawn) [Compound 2, reference compound] at or above 4 h?
Solution: label 0

Problem: Is half-life at 2 μM for CCC(CC)COC(=O)[C@H](C)N[P@@](=O)(OC[C@@]1(C#N)O[C@@H](c2ccc3c(N)ncnn23)[C@H](O)[C@@H]1O)Oc1ccccc1 (single isomer, unassigned) at or above 4 h?
Solution: label 0

Problem: Is half-life at 2 μM for "CCOC(=O)[C@H](C)N[P@](=O)(OC[C@@]1(C#N)O[C@@H](c2ccc3c(N)ncnn23)[C@H](O)[C@@H]1O)Oc1ccccc1" at or above 4 h?
Solution: label 1

Problem: Is half-life at 2 μM for "CCC(CC)COC(=O)[C@H](C)N[P@](=O)(OC[C@@]1(C#N)O[C@@H](c2ccc3c(N)ncnn23)[C@H](O)[C@@H]1O)Oc1ccccc1" at or above 4 h?
Solution: label 0

Now take the following molecule into account.
Problem: Is half-life at 2 μM for CCOC(=O)[C@H](C)NP(=O)(OC[C@@]1(C#N)O[C@@H](c2ccc3c(N)ncnn23)[C@H](O)[C@@H]1O)Oc1ccccc1 (stereo partly drawn) [Compound 1, reference compound] at or above 4 h?
Solution: label 1

----------
I'd appreciate it if you could supply CC50 at 5 days values for the items below.
Assay: NRVM neonatal rat cardiomyocyte cytotoxicity assay
Assay type: cell-based
Settings: freshly harvested neonatal cardiomyocytes (NRVM)
One number for each entry, in µM.

Problem: Reported CC50 at 5 days for CCC(CC)COC(=O)[C@H](C)N[P@](=O)(OC[C@@]1(C#N)O[C@@H](c2ccc3c(N)ncnn23)[C@H](O)[C@@H]1O)Oc1ccccc1 [Compound 6] : what is it?
Solution: 8.09

Further cases:
Problem: Reported CC50 at 5 days for C[C@H](N[P@](=O)(OC[C@@]1(C#N)O[C@@H](c2ccc3c(N)ncnn23)[C@H](O)[C@@H]1O)Oc1ccccc1)C(=O)OC1CCCCC1 [Formula I] : what is it?
Solution: 27.7

----------
Test: Thermodynamic solubility assay
Format: physicochemical
Settings: simulated gastric fluid, thermodynamic from solid; 10 mM hydrochloric acid (pH 2.0), room temperature, four days; read-out: pH 2 Solubility
I'd appreciate it if you could supply solubility thermodynamic at 4 days values for the items below.
Give bare numbers, in µg/mL.

Solved entries (count: 2):
Problem: Reported solubility thermodynamic at 4 days for CCC(CC)COC(=O)[C@H](C)NP(=O)(OC[C@@]1(C#N)O[C@@H](c2ccc3c(N)ncnn23)[C@H](O)[C@@H]1O)Oc1ccccc1 (stereo partly drawn) [Compound 2, reference compound] : what is it?
Solution: 3720

Problem: Reported solubility thermodynamic at 4 days for C[C@H](N[P@](=O)(OC[C@@]1(C#N)O[C@@H](c2ccc3c(N)ncnn23)[C@H](O)[C@@H]1O)Oc1ccccc1)C(=O)OC1CCCCC1 [Formula I] : what is it?
Solution: 4120

--- query ---
Problem: Reported solubility thermodynamic at 4 days for CCC(CC)COC(=O)[C@H](C)N[P@](=O)(OC[C@@]1(C#N)O[C@@H](c2ccc3c(N)ncnn23)[C@H](O)[C@@H]1O)Oc1ccccc1 [Compound 6] : what is it?
Solution: 3790
